Just for reference, patent US20190322730A1 is where these values come from.

Catalogue of Hemolytic Assay IC50, Human AP values
# targetEntity: human complement component C3 (human, UniProt P01024 23-667; P01024 672-1663)
# Sequence (P01024 23-667, chain 1 of 2): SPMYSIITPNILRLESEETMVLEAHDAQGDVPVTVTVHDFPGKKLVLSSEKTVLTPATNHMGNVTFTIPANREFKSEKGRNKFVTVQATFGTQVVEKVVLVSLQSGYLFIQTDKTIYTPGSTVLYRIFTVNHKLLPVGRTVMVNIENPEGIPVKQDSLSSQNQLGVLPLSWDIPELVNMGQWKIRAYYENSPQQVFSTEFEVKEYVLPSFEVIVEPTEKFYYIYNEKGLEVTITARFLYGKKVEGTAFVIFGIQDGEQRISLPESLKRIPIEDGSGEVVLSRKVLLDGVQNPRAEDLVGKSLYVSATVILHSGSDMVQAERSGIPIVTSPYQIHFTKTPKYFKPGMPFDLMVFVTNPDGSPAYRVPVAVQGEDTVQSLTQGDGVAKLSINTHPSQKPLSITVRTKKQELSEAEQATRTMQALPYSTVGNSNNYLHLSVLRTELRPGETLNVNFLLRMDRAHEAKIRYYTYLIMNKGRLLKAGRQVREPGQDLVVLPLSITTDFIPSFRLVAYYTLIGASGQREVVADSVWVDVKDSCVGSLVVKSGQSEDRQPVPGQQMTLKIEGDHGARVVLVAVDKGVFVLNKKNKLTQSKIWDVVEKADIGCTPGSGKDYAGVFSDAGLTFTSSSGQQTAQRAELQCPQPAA
# Sequence (P01024 672-1663, chain 2 of 2): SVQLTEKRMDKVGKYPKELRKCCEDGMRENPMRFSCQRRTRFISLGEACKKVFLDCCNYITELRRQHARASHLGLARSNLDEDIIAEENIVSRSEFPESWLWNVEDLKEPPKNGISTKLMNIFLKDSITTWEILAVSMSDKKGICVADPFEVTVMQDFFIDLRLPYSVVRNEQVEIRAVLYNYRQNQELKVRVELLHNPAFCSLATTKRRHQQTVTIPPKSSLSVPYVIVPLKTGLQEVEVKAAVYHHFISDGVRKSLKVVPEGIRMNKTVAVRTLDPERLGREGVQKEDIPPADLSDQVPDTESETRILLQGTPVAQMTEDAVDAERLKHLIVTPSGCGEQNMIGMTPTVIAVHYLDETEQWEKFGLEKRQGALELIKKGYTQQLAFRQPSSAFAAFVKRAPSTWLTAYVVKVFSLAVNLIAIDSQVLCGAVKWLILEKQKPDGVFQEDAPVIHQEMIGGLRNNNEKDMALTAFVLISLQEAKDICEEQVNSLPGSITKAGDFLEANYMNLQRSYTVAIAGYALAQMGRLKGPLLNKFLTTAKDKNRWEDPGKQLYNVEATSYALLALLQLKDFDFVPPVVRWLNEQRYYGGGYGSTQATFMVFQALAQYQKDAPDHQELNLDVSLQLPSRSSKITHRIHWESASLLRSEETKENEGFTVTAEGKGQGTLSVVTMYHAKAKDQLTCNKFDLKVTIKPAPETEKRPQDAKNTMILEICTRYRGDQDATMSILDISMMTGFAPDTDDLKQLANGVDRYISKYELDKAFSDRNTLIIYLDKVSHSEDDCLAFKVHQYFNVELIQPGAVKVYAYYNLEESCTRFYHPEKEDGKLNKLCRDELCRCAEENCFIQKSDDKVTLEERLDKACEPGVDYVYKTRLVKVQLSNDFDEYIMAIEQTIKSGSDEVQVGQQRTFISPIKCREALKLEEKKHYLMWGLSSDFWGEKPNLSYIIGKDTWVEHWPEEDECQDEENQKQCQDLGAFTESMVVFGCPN
# protocolText: cell-based or functional assay

[
  {
    "binder": "antibody 15C12 (antibody, V domains shown, Mouse hybridoma antibody) VH: EIQLQQSGAELEKPGASVKISCKASGYSFTGYNMHWVKQSHGKSLEWIGNINPYYGTTNSNQKFEDKATLTVDKSSSTAYMQLNSLTSEDSAVYYCARGIYYYGTGYPYFDFWGQGTTLTVSS VL: DIQMTQTTSSLSASLGDRVTISCRASQDINNYLNWYLQKPDGTVKLLIYYTSRLHSGVPSRFSGSGSGTDYSLTISNLEQEDLATYFCQQGITLPWTFGGGTKLEIK",
    "Hemolytic Assay IC50, Human AP": "3.7 nM"
  },
  {
    "binder": "antibody 28C3 (antibody, V domains shown, Mouse hybridoma antibody) VH: QVQLQQSGPELVKPGASVKISCKASGYAFNSCWMNWVKQRPGKGLEWIGRIYPGDGDTNYNGKFKGKATLTADKSSTTAYMQLSSLTSEDSAVYFCAREGRNYGYEDYWGQGTTLTVSS VL: DIVLTQSPASLAVSLGQRATISCKASQSVDYDGDSYMNWYQQKPGQPPKLLIYAASDLESGIPARFSGSGSGTDFTLNIHPVEEEDAATYYCQQANEDPRTFGGGTKLEIK",
    "Hemolytic Assay IC50, Human AP": "8 nM"
  }
]
